Values compiled from patent US20250281406A1.

# measurement notes: Particle size and polydispersity index of lipid nanoparticles by dynamic light scattering
# Format: physicochemical
# test context: MO nanoparticles with amino lipid at RMO 0.05, Pluronic F-127, 25° C., mean ± SD n=3
readout kind: Particle Size in nm (nm)
Give your result in nm as a bare value.

Some compounds with recorded Particle Size in nm:
CCCCCCCC/C=C\CCCCCCCC(=O)NCCN1CCOCC1    214
CCCCCCCC/C=C\CCCCCCCC(=O)NCc1ccncc1 [Lipid-10, N-(pyridine-4-ylmethyl)oleamide]    217
CCCCCCCC/C=C\CCCCCCCC(=O)NCCN1CCCCC1 [Lipid-13, N-(2-(piperidin-1-yl)ethyl)oleamide]    180

// moving on: another record for Particle Size in nm
Query string: Consider the compound CCCCCCCC/C=C\CCCCCCCC(=O)NCc1ccccn1 . State its measured Particle Size in nm.
Result string: 284

###

Form field: PDI of the formulations (one value per entry).
# measurement notes: Particle size and polydispersity index of lipid nanoparticles by dynamic light scattering
# Type: physicochemical
# test context: MO nanoparticles with amino lipid at RMO 0.1, Pluronic F-127, 25° C., mean ± SD n=3
No unit in the answer, please; the number alone is enough.

Query string: Output PDI of the formulations of CCCCCCCC/C=C\CCCCCCCC(=O)NCCN1CCCCC1 [Lipid-13, N-(2-(piperidin-1-yl)ethyl)oleamide]
Result string: 0.20

###

Each item that follows carries a reported Particle Size in nm.
# measurement notes: Particle size and polydispersity index of lipid nanoparticles by dynamic light scattering
# Assay type: physicochemical
# test context: MO nanoparticles with amino lipid at RMO 0.3, Pluronic F-127, 25° C., mean ± SD n=3
Enter your answer as a number in nm; do not include the unit.

Examples with their reported Particle Size in nm follow.
CCCCCCCC/C=C\CCCCCCCC(=O)NCCN1CCCCC1 [Lipid-13, N-(2-(piperidin-1-yl)ethyl)oleamide]    194
CCCCCCCC/C=C\CCCCCCCC(=O)NCc1ccccn1 [Lipid-11]    290
CCCCCCCC/C=C\CCCCCCCC(=O)NCCN1CCOCC1 [Lipid-12]    206

Okay, now this compound:
Query string: Return Particle Size in nm (reported value) for this compound: CCCCCCCC/C=C\CCCCCCCC(=O)NCc1ccncc1 [Lipid-10, N-(pyridine-4-ylmethyl)oleamide]
Result string: 246

###

Measured Particle Size in nm, listed per entry.
# measurement notes: Particle size and polydispersity index of lipid nanoparticles by dynamic light scattering
# Assay type: physicochemical
# test context: MO nanoparticles with amino lipid at RMO 0.4, Pluronic F-127, 25° C., mean ± SD n=3
State the answer as a number, implicitly in nm.

These solved cases illustrate the format of a correct answer.
CCCCCCCC/C=C\CCCCCCCC(=O)NCc1ccccn1    272
CCCCCCCC/C=C\CCCCCCCC(=O)NCCN1CCCCC1 [Lipid-13, N-(2-(piperidin-1-yl)ethyl)oleamide]    200
CCCCCCCC/C=C\CCCCCCCC(=O)NCc1ccncc1 [Lipid-10, N-(pyridine-4-ylmethyl)oleamide]    244

Turning now to a further record.
Query string: Note Particle Size in nm for the compound shown: CCCCCCCC/C=C\CCCCCCCC(=O)NCCN1CCOCC1
Result string: 205

###

# measurement notes: Particle size and polydispersity index of lipid nanoparticles by dynamic light scattering
# Type: physicochemical
# test context: MO nanoparticles with amino lipid at RMO 0.15, Pluronic F-127, 25° C., mean ± SD n=3
readout kind: PDI of the formulations
Returns: the value as a bare number; no unit string appended.

Query string: Retrieve PDI of the formulations measured for CCCCCCCC/C=C\CCCCCCCC(=O)NCc1ccccn1 and print it.
Result string: 0.20

Query string: Output measured PDI of the formulations for this item: CCCCCCCC/C=C\CCCCCCCC(=O)NCCN1CCOCC1
Result string: 0.20

Query string: Give PDI of the formulations for the following compound: CCCCCCCC/C=C\CCCCCCCC(=O)NCc1ccncc1 [Lipid-10, N-(pyridine-4-ylmethyl)oleamide]
Result string: 0.2

Query string: // Input: CCCCCCCC/C=C\CCCCCCCC(=O)NCCN1CCCCC1 [Lipid-13, N-(2-(piperidin-1-yl)ethyl)oleamide] . Output its PDI of the formulations only.
Result string: 0.23
